Would you kindly list log10 of Ki for each of these molecules?
Target: human recombinant dopamine D3 receptor (Homo sapiens (Human), UniProt P35462)
Sequence (P35462 whole entry): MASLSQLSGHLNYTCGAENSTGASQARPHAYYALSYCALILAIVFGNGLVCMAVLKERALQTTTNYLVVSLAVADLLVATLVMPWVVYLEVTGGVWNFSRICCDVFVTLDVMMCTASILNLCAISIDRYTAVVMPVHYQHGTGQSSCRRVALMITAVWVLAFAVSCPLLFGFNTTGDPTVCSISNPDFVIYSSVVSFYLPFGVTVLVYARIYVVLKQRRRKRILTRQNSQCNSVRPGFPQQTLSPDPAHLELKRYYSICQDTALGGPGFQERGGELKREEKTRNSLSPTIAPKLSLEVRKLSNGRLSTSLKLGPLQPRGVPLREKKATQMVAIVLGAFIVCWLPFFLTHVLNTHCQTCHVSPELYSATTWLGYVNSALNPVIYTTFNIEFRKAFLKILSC
Experiment: Test of binding inhibition for dopamine D3 receptor ([3H]-Methylspiperone SPA)
Conditions: Jump-In HEK cell membranes, 2 nM [3H]-Methylspiperone, 120 min at 25° C.; read-out: hD3_Ki
Method: (Experimental Conditions) Cell membranes: Jump-In HEK cell membranes expressing human recombinant dopamine D3 receptor (4 μg/well) Non-specific ligand: (final concentration) 10 μM Butaclamol [(+)-Butaclamol Hydrochloride, D033, Sigma] SPA beads solution: SPA beads [WGA PVT SPA Scintillation Beads, RPNQ0001 (500 mg), RPNQ0060 (2 g), PerkinElmer] (0.2 mg/well) Incubation time and temperature: 120 min at 25° C. […]
Log scale reminder: Ki in pM, then log10 taken.

Please review the following examples before continuing.
Cc1ncc(/C=C/C(=O)N[C@H]2CC[C@](F)(CCN3CCc4nc(OCCC(F)(F)F)sc4CC3)CC2)cn1	3.00
CN1Cc2c(C(=O)N[C@H]3CC[C@](F)(CCN4CCc5nc(OCC(F)F)sc5CC4)CC3)cccc2C1=O	2.11
Cn1cc2c(C(=O)N[C@H]3CC[C@H](CCN4CCc5sc(OCC(C)(F)F)nc5C4)CC3)c(F)ccc2n1	2.23

Please go through the list and note log10 of Ki for each molecule.
1. Cn1cc(/C=C/C(=O)N[C@H]2CC[C@](F)(CCN3CCc4nc(OCC(C)(F)F)sc4CC3)CC2)cn1
2. Cc1cnc(CC(=O)N[C@H]2CC[C@](F)(CCN3CCc4nc(OCC(F)F)sc4CC3)CC2)o1
3. Cc1nnc(CC(=O)N[C@H]2CC[C@H](CCN3CCc4sc(C5CC(F)(F)C5)nc4C3)CC2)s1
4. Cc1ncc(CC(=O)N[C@H]2CC[C@H](CCN3CCc4ccc(OC5CCC5)nc4CC3)CC2)o1
5. Cn1cc(CC(=O)N[C@H]2CC[C@](F)(CCN3CCc4ccc(OCC(C)(F)F)nc4CC3)CC2)cn1
6. Cc1ncc(OCC(=O)N[C@H]2CC[C@](F)(CCN3CCc4ccc(OCC(F)F)nc4CC3)CC2)cn1
7. Cc1cc(OCC(=O)N[C@H]2CC[C@](F)(CCN3CCc4ccc(OCC(C)(F)F)nc4CC3)CC2)no1
8. CC(F)(F)COc1nc2c(s1)CCN(CC[C@H]1CC[C@H](NC(=O)c3cccnc3C(F)F)CC1)CC2

1: 1.40; 2: 2.91; 3: 2.20; 4: 2.89; 5: 1.80; 6: 2.48; 7: 1.85; 8: 2.49

Record log10 of Ki per entry; entries follow.
1. CN1Cc2c(C(=O)N[C@H]3CC[C@H](CCN4CCc5sc(C6CC(F)(F)C6)nc5C4)CC3)cccc2C1=O
2. Cc1cnc(CC(=O)N[C@H]2CC[C@](F)(CCN3CCc4nc(OCCC(F)(F)F)sc4CC3)CC2)o1
3. Cc1nc(CC(=O)N[C@H]2CC[C@](F)(CCN3CCc4ccc(O[C@H](C)C(F)(F)F)nc4CC3)CC2)nn1C

2.18
2.74
2.93

---

Molecular target: human recombinant dopamine D2 receptor (Homo sapiens (Human))
Sequence (P14416 whole entry): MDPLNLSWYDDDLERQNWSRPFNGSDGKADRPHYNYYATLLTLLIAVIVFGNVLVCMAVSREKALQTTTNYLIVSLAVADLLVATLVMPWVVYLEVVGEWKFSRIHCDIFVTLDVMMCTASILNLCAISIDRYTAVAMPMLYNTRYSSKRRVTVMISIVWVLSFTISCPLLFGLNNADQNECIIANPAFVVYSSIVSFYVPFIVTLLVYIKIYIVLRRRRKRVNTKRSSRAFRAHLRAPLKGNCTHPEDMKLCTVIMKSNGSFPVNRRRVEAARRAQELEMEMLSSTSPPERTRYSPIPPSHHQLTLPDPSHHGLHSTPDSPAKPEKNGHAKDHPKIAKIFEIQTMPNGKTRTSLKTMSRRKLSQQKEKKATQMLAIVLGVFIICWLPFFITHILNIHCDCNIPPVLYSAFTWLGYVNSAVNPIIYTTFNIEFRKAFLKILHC
Test: Test of binding inhibition for dopamine D2 receptor ([3H]-Methylspiperone SPA)
Conditions: Jump-In HEK cell membranes, 1.2 nM [3H]-Methylspiperone, 120 min at 25° C.; read-out: hD2_Ki
ENDPOINT LABEL: Ki

The following molecules each have a reported value; give each one's Ki.
1. Cc1nnc(CC(=O)N[C@H]2CC[C@](F)(CCN3CCc4nc(OCCC(F)(F)F)sc4CC3)CC2)s1
2. C[C@@H](Oc1nc2c(s1)CCN(CC[C@H]1CC[C@H](NC(=O)c3cccc4nn(C)cc34)CC1)CC2)C(F)(F)F
3. Cc1ncc(CC(=O)N[C@H]2CC[C@H](CCN3CCc4ccc(OC(C)C)nc4CC3)CC2)o1
4. Cn1cc(CC(=O)N[C@H]2CC[C@](F)(CCN3CCc4ccc(OC5CCC5)nc4CC3)CC2)cn1
5. Cc1cc(CC(=O)N[C@H]2CC[C@](F)(CCN3CCc4ccc(CCC(F)(F)F)nc4CC3)CC2)on1

["> 2200 nM", "> 2200 nM", "> 1900 nM", "> 2300 nM", "> 2300 nM"]

Return value of Ki for input Cn1cc(CC(=O)N[C@H]2CC[C@](F)(CCN3CCc4nc(OCC(F)F)sc4CC3)CC2)cn1 , no commentary. > 1700 nM
